// provenance: ChEMBL document CHEMBL1177799

assay_target: Adenosine receptor A1 (Homo sapiens, UniProt P30542)
Sequence (P30542 whole entry): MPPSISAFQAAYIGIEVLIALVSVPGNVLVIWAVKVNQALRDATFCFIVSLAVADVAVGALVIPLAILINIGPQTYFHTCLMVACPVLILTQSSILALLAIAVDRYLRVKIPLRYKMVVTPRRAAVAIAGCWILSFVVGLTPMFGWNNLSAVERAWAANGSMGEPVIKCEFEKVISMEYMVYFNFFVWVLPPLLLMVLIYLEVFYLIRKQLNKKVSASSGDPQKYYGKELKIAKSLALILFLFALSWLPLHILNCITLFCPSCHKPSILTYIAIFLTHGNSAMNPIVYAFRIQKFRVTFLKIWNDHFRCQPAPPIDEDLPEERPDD
pKi: −log10 of the molar value.
Label Criterion met when pKi >= 7; otherwise Criterion not met.

The following compounds have reported results that may help.
- compound_structure: "COc1ccc(N(CC(C)C)C(C)=O)c2sc(NC(=O)c3ccc(F)cc3)nc12"
  assigned_category: "Criterion met"
- compound_structure: "COc1ccc(N(CC(=O)N(C)C)C(C)=O)c2sc(NC(=O)c3ccc(F)cc3)nc12"
  assigned_category: "Criterion not met"
- compound_structure: "COc1ccc(N(CCO)C(C)=O)c2sc(NC(=O)c3ccc(F)cc3)nc12"
  assigned_category: "Criterion not met"
- compound_structure: "CCN(C(C)=O)c1ccc(OC)c2nc(NC(=O)c3cnn(Cc4cccc(C(F)(F)F)c4)c3)sc12"
  assigned_category: "Criterion met"
- compound_structure: "CCN(C(C)=O)c1ccc(OC)c2nc(NC(=O)c3cnn(Cc4cccc(F)c4)c3)sc12"
  assigned_category: "Criterion met"

API: above_or_equal(metric=pKi, cutoff=7) for item CCN(C(C)=O)c1ccc(OC)c2nc(NC(=O)c3ccc(C(=O)N4CCCCC4)cc3)sc12
Criterion not met

Let us now turn to COC(=O)CN(C(C)=O)c1ccc(OC)c2nc(NC(=O)c3ccc(F)cc3)sc12
Criterion met
